Reference source: patent US20240360227A1

Consider the following binders; for each one, report its pKd.
# SYSTEM UNDER TEST: Recombinant human his-tagged IGF R extracellular domain protein (human) (UniProt P08069)
# MEASUREMENT PROTOCOL: SPR, Ab captured via anti-huIgG Fc, dissociation at pH 6
Give bare numbers, as −log10 of the molar value.

Recorded results for 3 binders are shown here.
- BINDER: "VRDN-02037 (antibody, V domains shown) VH: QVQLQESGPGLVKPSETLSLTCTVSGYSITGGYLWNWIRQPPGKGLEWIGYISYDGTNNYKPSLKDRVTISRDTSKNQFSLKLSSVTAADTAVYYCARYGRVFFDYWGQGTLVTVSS VL: DIVMTQSPLSLPVTPGEPASISCRSSQSIVHSHGNTYLQWYLQKPGQSPQLLIYKVSNRLYGVPDRFSGSGSGTDFTLKISRVEAEDVGVYYCFQGSHVPWTFGQGTKVEIK"
  pKd: 8.84
- BINDER: "VRDN-02100 (antibody, human IgG1, kappa, V domains shown) VH: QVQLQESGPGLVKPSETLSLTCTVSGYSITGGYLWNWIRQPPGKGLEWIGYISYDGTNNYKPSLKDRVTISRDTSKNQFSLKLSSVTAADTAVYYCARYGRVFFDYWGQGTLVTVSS VL: DIVMTQSPLSLPVTPGEPASISCRSSQSIVHSNGNTYLQWYLQKPGQSPQLLIYKVSNRLYGVPDRFSGSGSGTDFTLKISRVEAEDVGVYYCFQGSHVPWTFGQGTKVEIKR"
  pKd: 8.98
- BINDER: "VRDN-02016 (antibody, V domains shown) VH: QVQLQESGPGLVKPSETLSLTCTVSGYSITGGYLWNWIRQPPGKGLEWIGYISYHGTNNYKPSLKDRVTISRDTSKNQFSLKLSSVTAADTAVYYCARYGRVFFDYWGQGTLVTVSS VL: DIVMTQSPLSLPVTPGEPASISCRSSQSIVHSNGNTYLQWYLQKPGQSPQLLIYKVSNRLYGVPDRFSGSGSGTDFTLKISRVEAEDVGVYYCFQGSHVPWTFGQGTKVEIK"
  pKd: 8.88

Hi, could you look up pKd for each item in my list?
1. VRDN-02058 (antibody, V domains shown) VH: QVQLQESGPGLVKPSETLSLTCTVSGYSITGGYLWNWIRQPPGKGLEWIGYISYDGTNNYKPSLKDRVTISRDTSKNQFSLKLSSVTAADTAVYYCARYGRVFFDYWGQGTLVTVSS VL: DIVMTQSPLSLPVTPGEPASISCRSSQSIVHSNGNTYLQWYLQKPGQSPQLLIYKVSNRLYGVPDRFSGSGSGTDFTLKISRVEAEDVGVYYCFQGSHVPWHFGQGTKVEIK
2. VRDN-02072 (antibody, V domains shown) VH: QVQLQESGPGLVKPSETLSLTCTVSGYSITGGYLWNWIRQPPGKGLEWIGYIHYDGTNNYKPSLKDRVTISRDTSKNQFSLKLSSVTAADTAVYYCARHGRVFFDYWGQGTLVTVSS VL: DIVMTQSPLSLPVTPGEPASISCRSHQSIVHSNGNTYLQWYLQKPGQSPQLLIYKVSNRLYGVPDRFSGSGSGTDFTLKISRVEAEDVGVYYCFQGSHVHWTFGQGTKVEIK

1. 8.93
2. 9.57
